# reported pIC50; entries follow
Molecular target: fMet-Leu-Phe receptor (Homo sapiens)
Sequence (P21462 whole entry): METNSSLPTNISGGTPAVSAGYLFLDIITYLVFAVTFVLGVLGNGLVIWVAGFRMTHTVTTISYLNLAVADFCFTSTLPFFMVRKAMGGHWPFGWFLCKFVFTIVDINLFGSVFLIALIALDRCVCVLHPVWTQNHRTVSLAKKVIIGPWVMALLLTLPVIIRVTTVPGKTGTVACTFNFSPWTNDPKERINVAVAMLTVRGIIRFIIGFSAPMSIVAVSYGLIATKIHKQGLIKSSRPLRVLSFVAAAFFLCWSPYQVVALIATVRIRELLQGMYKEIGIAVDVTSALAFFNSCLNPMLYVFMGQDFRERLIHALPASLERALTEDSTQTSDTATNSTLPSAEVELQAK
Test: Inhibitory activity against human formylpeptide receptor (FPR) of human leukemia HL-60 cells
Type: cell-based
In plain terms, pIC50 is the concentration in mol/L turned into minus its base-10 logarithm.

Before answering, review these 4 worked examples.
C/C=C/C[C@@H](C)[C@@H](O)[C@H]1C(=O)N[C@@H]([C@@H](C)O)C(=O)NCC(=O)N(C)[C@@H](CC(C)C)C(=O)N[C@@H](CC(C)C)C(=O)N(C)[C@@H](CC(C)C)C(=O)N[C@@H](C)C(=O)N[C@](O)(C(C)C)C(=O)N(C)[C@@H](CC(C)C)C(=O)N[C@@H](CC(C)C)C(=O)N(C)[C@@H](C(C)C)C(=O)N1C = 6.52
C/C=C/C[C@@H](C)[C@@H](O)[C@H]1C(=O)N[C@@H]([C@@H](C)O)C(=O)N(C)CC(=O)N(C)[C@@H](CC(C)C)C(=O)N[C@@H]([C@@H](C)CC)C(=O)N(C)[C@@H](CC(C)C)C(=O)N[C@@H](C)C(=O)N[C@H](C)C(=O)N(C)[C@@H](CC(C)C)C(=O)N(C)[C@@H](CC(C)C)C(=O)N(C)[C@@H](C(C)C)C(=O)N1C = 5.64
C/C=C/C[C@@H](C)[C@@H](O)[C@H]1C(=O)N[C@@H]([C@@H](C)O)C(=O)N(C)CC(=O)N(C)[C@@H](CC(C)C)C(=O)N[C@@H](C(C)C)C(=O)N(C)[C@@H](CC(C)C)C(=O)N[C@@H](C)C(=O)N[C@](O)(C(C)C)C(=O)N(C)[C@@H](CC(C)C)C(=O)N[C@@H](CC(C)C)C(=O)N(C)[C@@H](C(C)C)C(=O)N1C = 5.60
C/C=C/C[C@@H](C)[C@@H](O)[C@H]1C(=O)N[C@@H](CC)C(=O)N(C)CC(=O)N(C)[C@@H](CC(C)C)C(=O)N[C@@H](C(C)C)C(=O)N[C@@H](CC(C)C)C(=O)N[C@@H](C)C(=O)N[C@H](C)C(=O)N(C)[C@@H](CC(C)C)C(=O)N[C@@H](CC(C)C)C(=O)N(C)[C@@H](C(C)C)C(=O)N1C = 5.74

Task: May I ask what pIC50 has been recorded for C/C=C/C[C@@H](C)[C@@H](O)[C@H]1C(=O)N[C@@H](C)C(=O)N(C)CC(=O)N(C)[C@@H](CC(C)C)C(=O)N[C@@H](C(C)C)C(=O)N(C)[C@@H](CC(C)C)C(=O)N[C@@H](C)C(=O)N[C@H](C)C(=O)N(C)[C@@H](CC(C)C)C(=O)N[C@@H](CC(C)C)C(=O)N(C)[C@@H](C(C)C)C(=O)N1C ?
Output: 5.66
